Target: T1, human PD-L1-his tag protein (human, UniProt Q9NZQ7 19-238)
T1 construct: also called human PD-L1-His protein; recombinant PD-L1 protein; not shown: his tag
T1 sequence (Q9NZQ7 19-238 limits assumed): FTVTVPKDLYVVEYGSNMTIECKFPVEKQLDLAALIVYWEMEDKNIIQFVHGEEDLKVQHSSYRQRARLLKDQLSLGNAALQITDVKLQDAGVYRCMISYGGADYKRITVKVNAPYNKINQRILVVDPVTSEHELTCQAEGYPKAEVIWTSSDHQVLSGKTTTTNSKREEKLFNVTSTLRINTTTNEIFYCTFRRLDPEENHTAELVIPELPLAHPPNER
Experiment: SPR (Biacore), affinity ranking, PDL1-His
Short version: koff at least 0.0001 s⁻¹ is label 1, less is label 0.

# example entries with known answers
# BINDER, GROUP LABEL
data = [
    ("Hu89C10H8-7 (antibody, V domains shown, humanized) VH: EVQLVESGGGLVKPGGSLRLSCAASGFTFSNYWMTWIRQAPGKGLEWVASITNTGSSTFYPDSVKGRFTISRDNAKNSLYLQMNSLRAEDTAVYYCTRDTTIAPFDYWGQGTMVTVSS VL: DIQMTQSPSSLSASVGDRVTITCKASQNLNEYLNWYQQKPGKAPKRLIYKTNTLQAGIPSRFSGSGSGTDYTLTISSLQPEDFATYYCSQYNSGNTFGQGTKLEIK", "label 0"),
    ("Hu67F3G7-15 (antibody, V domains shown, humanized) VH: EVQLVQSGAEVKKPGASVKVSCKASGYIFTDFWVSWVRQAPGKGLEWIGEIYPNSGVSRYNEKFKGRVTMTVDKSISTAYMELSRLRSDDTAVYYCTKYFGYTYWFGYWGQGTLVTVSS VL: DTVLTQSPSSLSASVGDRVTITCRASKSVSTYMHWYQQKPGKQPKLLIYSASHLESGVPSRFSGSGSGTDFTLTISSLQPEDFATYYCQQSNELPVTFGGGTKVEIK", "label 0"),
    ("Hu67F3G7-16 (antibody, V domains shown, humanized) VH: EVQLVQSGAEVKKPGASVKVSCKASGYTFTDFWVSWVRQAPGQGLEWMGEIYPNSGVSRYNEKFKGRVTMTVDKSISTAYMELSRLRSDDTAVYYCARYFGYTYWFGYWGQGTLVTVSS VL: DTVLTQSPSLSASVGDRVTITCRASKSVSTYMHWYQQKPGKQPKLLIYSASHLESGVPSRFSGSGSGTDFTLTISSLQPEDFATYYCQQSNELPVTFGGGTKVEIK", "label 1"),
]

Quick check: does Hu89C10H8-5 (antibody, V domains shown, humanized) VH: EVQLVESGGGLVKPGGSLRLSCAASGFTFSNYWMTWVRQAPGKGLEWVASITNTGSSTFYPDSVKGRFTISRDNAKNSLYLQMNSLRAEDTAVYYCARDTTIAPFDYWGQGTMVTVSS VL: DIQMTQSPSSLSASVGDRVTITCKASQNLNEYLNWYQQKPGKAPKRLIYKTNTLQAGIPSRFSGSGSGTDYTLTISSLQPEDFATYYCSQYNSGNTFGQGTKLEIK have koff greater than or equal to 0.0001 s⁻¹? label 1
